# assayed_system: human HDAC3 (Homo sapiens, UniProt O15379)
# Sequence (O15379 whole entry): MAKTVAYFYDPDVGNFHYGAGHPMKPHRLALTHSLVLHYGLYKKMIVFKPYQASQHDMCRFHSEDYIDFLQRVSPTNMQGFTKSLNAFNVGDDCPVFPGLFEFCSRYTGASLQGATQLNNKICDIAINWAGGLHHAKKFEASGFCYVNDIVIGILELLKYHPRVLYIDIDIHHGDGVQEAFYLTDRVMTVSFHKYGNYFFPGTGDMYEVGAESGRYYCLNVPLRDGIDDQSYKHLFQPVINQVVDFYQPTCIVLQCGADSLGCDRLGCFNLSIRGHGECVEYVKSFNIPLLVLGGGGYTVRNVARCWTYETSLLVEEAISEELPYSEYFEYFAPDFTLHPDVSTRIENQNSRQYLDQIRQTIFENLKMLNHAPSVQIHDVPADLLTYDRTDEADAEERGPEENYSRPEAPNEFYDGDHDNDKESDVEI
# Sequence (Q9Y618 395-489 partner limits assumed): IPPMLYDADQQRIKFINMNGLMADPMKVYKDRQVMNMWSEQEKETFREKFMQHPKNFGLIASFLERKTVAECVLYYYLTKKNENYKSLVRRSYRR
pIC50: −log10 of the molar value.
readout_kind: pIC50

>>> observed_measurement("CC(=O)C(C)=O")
2.11

// provenance: patent US10537535B2
